- Test system: A549
- Assay Remarks: cells
- Measurement Setup: Homo sapiens, A549, 72 h
Record form. Attribute: IC50. Fill in for each entry.
One number for each entry, in µM.

# count of solved cases: 3
Query Smiles: CCCNC(=O)c1cc(Oc2ccc(NC(=O)c3cn(-c4ccc(OC)cc4)c4ncccc4c3=O)cc2F)ccn1
Scale Unit: µM
IC50: 51.1

Query Smiles: O=C(NCCCN1CCOCC1)c1cc(Oc2ccc(NC(=O)c3cn(-c4ccc(F)c(Cl)c4)c4ncccc4c3=O)cc2)ccn1
Scale Unit: µM
IC50: 7.88

Query Smiles: O=C(Nc1ccc(Oc2ccnc(C(=O)N3CCCC3)c2)c(F)c1)c1cn(-c2ccc(Cl)cc2)c2ncccc2c1=O
Scale Unit: µM
IC50: 79.3

Name the recorded IC50 of the item `O=C(Nc1ccc(Oc2ccnc(C(=O)N3CCCC3)c2)c(F)c1)c1cn(-c2ccc(F)c(Cl)c2)c2ncccc2c1=O` in your answer.
0.98

====

- System Tested: Receptor-type tyrosine-protein kinase FLT3 (Homo sapiens)
- Sequence (P36888 whole entry): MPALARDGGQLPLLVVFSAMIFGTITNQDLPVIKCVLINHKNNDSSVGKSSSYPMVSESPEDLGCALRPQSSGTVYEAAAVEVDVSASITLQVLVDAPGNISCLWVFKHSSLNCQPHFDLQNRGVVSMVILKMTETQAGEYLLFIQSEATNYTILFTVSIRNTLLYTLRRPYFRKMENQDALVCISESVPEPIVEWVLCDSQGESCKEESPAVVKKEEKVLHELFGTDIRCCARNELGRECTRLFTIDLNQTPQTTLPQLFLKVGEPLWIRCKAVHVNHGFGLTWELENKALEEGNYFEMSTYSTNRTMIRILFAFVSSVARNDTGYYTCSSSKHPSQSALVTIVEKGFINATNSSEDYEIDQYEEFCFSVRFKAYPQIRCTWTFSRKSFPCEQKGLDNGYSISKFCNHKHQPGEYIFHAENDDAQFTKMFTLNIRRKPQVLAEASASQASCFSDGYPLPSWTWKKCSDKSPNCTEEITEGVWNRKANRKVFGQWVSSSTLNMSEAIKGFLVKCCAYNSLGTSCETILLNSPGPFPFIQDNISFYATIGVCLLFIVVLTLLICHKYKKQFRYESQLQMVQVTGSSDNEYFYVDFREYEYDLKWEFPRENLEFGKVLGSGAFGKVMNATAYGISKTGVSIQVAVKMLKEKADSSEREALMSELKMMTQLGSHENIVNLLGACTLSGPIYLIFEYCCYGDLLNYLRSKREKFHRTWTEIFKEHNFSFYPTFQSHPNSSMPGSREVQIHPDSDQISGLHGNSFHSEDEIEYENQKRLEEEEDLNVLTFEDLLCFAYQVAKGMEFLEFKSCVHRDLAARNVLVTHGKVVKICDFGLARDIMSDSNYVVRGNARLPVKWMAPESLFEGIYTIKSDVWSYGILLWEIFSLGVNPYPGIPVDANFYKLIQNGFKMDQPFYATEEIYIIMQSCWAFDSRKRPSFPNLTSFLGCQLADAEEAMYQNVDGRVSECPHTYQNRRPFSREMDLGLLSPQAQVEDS
- Assay Remarks: Inhibition of Flt3 (unknown origin)
pIC50: −log10 of the molar value.
Recorded Endpoint: pIC50

Given `O=C(NCCCN1CCOCC1)c1cc(Oc2ccc(NC(=O)c3cn(-c4ccc(F)c(Cl)c4)c4ncccc4c3=O)cc2F)ccn1` , report its pIC50 on Receptor-type tyrosine-protein kinase FLT3 (Homo sapiens).
< 4.00

====

- System Tested: UniProtKB P08581
- Sequence (P08581 whole entry): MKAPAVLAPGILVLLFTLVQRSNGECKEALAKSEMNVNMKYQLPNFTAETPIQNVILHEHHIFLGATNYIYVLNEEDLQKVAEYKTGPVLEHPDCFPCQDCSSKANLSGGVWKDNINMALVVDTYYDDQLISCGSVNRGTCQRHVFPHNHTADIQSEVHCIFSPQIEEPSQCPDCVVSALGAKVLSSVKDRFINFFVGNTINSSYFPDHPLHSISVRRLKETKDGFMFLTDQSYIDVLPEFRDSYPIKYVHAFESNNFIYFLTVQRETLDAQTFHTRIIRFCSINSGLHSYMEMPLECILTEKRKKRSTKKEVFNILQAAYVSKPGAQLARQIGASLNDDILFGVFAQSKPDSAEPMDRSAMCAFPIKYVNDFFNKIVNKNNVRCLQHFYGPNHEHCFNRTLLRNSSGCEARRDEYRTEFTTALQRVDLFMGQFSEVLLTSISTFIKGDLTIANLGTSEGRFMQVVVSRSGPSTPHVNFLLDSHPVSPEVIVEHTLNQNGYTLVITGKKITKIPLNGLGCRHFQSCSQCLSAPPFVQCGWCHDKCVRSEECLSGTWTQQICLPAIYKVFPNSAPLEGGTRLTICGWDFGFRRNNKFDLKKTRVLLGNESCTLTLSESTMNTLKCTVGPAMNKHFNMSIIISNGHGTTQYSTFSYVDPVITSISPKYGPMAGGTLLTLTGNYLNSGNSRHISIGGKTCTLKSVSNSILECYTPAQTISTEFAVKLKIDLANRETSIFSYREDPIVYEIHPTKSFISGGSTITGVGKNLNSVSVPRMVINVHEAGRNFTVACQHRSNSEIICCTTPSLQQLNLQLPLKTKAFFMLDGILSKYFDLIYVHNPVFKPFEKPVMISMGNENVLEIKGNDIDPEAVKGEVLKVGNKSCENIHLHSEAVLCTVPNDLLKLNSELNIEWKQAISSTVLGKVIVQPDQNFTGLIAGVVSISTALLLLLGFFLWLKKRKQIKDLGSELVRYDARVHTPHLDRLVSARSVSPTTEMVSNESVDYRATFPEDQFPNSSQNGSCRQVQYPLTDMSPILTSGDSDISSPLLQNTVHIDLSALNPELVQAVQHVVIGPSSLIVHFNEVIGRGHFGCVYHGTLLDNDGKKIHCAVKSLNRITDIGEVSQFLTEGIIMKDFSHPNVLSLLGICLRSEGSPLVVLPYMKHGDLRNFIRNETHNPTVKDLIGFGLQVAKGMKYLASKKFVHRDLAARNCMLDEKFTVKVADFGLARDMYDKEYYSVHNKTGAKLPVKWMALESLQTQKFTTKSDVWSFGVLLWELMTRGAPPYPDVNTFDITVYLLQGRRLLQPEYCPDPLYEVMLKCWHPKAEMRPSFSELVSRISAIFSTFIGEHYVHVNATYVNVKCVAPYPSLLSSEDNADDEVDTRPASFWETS
Recorded Endpoint: pIC50
Give bare numbers, as −log10 of the molar value.

Name the recorded pIC50 of the item `O=C(NCCCN1CCOCC1)c1cc(Oc2ccc(NC(=O)c3cn(-c4ccc(F)c(Cl)c4)c4ncccc4c3=O)cc2F)ccn1` in your answer.
7.33

====

Record form. Attribute: pIC50. Fill in for each entry.
- Tested on: A549
- Assay Remarks: cells
- Measurement Setup: Homo sapiens, A549, 72 h
Numbers only, as −log10 of the molar value.

# count of solved cases: 4
Compound: O=C(Nc1ccc(Oc2ccnc(C(=O)N3CCCC3)c2)c(F)c1)c1cn(-c2ccc(F)cc2)c2ncccc2c1=O
pIC50: 5.79
//
Compound: O=C(NCCCN1CCOCC1)c1cc(Oc2ccc(NC(=O)c3cn(-c4ccc(F)c(Cl)c4)c4ncccc4c3=O)cc2F)ccn1
pIC50: 6.59
//
Compound: O=C(NCCCN1CCOCC1)c1cc(Oc2ccc(NC(=O)c3cn(-c4ccc(F)cc4)c4ncccc4c3=O)cc2F)ccn1
pIC50: 6.24
//
Compound: CCCNC(=O)c1cc(Oc2ccc(NC(=O)c3cn(-c4ccc(Cl)cc4)c4ncccc4c3=O)cc2F)ccn1
pIC50: 4.35

Give me pIC50 for each of these compounds, listed below.
1. O=C(NCCCN1CCOCC1)c1cc(Oc2ccc(NC(=O)c3cn(-c4ccccc4)c4ncccc4c3=O)cc2F)ccn1
2. CCCNC(=O)c1cc(Oc2ccc(NC(=O)c3cn(-c4ccc(Br)cc4F)c4ncccc4c3=O)cc2F)ccn1
3. CCCNC(=O)c1cc(Oc2ccc(NC(=O)c3cn(-c4ccc(Br)cc4)c4ncccc4c3=O)cc2F)ccn1
4. O=C(Nc1ccc(Oc2ccnc(C(=O)N3CCCC3)c2)cc1)c1cn(-c2ccc(Cl)cc2)c2ncccc2c1=O
5. COc1ccc(-n2cc(C(=O)Nc3ccc(Oc4ccnc(C(=O)NCCCN5CCOCC5)c4)cc3)c(=O)c3cccnc32)cc1
6. O=C(Nc1ccc(Oc2ccnc(C(=O)N3CCCC3)c2)cc1)c1cn(-c2ccc(Br)cc2F)c2ncccc2c1=O
7. O=C(NCCCN1CCOCC1)c1cc(Oc2ccc(NC(=O)c3cn(-c4ccc(Br)cc4)c4ncccc4c3=O)cc2F)ccn1

1. 5.02
2. 4.73
3. 5.10
4. 4.24
5. 4.79
6. 4.25
7. 5.54

Give me pIC50 for each of these compounds, listed below.
1. COc1ccc(-n2cc(C(=O)Nc3ccc(Oc4ccnc(C(=O)N5CCCC5)c4)cc3)c(=O)c3cccnc32)cc1
2. O=C(NCCCN1CCOCC1)c1cc(Oc2ccc(NC(=O)c3cn(-c4ccc(Br)cc4)c4ncccc4c3=O)cc2)ccn1
3. CCCNC(=O)c1cc(Oc2ccc(NC(=O)c3cn(-c4ccc(OC)cc4)c4ncccc4c3=O)cc2)ccn1
4. CCCNC(=O)c1cc(Oc2ccc(NC(=O)c3cn(-c4ccc(F)cc4)c4ncccc4c3=O)cc2)ccn1
5. COc1cc2nccc(Oc3ccc(NC(=O)C4(C(=O)Nc5ccc(F)cc5)CC4)cc3)c2cc1OC [CABOZANTINIB]
6. COc1ccc(-n2cc(C(=O)Nc3ccc(Oc4ccnc(C(=O)NCCCN5CCOCC5)c4)c(F)c3)c(=O)c3cccnc32)cc1
7. O=C(NCCCN1CCOCC1)c1cc(Oc2ccc(NC(=O)c3cn(-c4ccc(Cl)cc4)c4ncccc4c3=O)cc2F)ccn1

4.47
6.13
6.02
6.05
6.21
4.71
5.41

====

- Assay Remarks: Tmax in Sprague-Dawley rat at 10 mg/kg, po by LC-MS/MS analysis
- Assay type: ADME, organism-based
- Measurement Setup: in vivo
Recorded Endpoint: Tmax (h)
Numbers only, in h.

Name the recorded Tmax of the item `O=C(NCCCN1CCOCC1)c1cc(Oc2ccc(NC(=O)c3cn(-c4ccc(F)c(Cl)c4)c4ncccc4c3=O)cc2F)ccn1` in your answer.
2.7

====

- System Tested: Mast/stem cell growth factor receptor Kit (Homo sapiens, UniProt P10721)
- Sequence (P10721 whole entry): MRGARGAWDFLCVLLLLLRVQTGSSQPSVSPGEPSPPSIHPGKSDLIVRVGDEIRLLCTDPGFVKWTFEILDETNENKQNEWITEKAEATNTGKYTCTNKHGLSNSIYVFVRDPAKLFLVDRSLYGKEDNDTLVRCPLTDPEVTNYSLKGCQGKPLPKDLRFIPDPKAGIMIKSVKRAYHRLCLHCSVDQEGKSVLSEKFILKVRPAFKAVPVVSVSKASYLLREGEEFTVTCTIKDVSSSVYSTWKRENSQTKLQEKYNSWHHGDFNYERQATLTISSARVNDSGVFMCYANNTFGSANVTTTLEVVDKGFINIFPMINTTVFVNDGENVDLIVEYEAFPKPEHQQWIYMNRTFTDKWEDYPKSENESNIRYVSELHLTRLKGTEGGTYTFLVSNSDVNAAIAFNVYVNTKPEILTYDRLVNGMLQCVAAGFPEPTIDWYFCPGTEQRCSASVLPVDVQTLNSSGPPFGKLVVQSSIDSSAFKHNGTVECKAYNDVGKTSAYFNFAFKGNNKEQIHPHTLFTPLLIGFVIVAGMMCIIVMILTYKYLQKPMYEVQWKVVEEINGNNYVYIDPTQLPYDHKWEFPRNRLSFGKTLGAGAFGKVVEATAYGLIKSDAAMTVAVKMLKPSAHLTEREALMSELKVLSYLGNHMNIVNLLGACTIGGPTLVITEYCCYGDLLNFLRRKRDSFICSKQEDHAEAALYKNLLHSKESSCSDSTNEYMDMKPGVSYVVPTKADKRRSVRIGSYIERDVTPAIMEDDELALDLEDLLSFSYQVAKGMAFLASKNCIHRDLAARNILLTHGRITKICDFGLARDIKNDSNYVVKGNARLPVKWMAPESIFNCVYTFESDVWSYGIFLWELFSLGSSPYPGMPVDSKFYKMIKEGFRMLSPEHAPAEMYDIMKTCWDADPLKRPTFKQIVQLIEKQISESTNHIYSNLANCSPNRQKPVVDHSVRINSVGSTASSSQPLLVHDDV
pIC50: −log10 of the molar value.
Recorded Endpoint: pIC50

Name the recorded pIC50 of the item `O=C(NCCCN1CCOCC1)c1cc(Oc2ccc(NC(=O)c3cn(-c4ccc(F)c(Cl)c4)c4ncccc4c3=O)cc2F)ccn1` in your answer.
< 4.00

====

- Assay Remarks: Cmax in Sprague-Dawley rat at 1 mg/kg, iv by LC-MS/MS analysis
- Format: ADME, organism-based
- Measurement Setup: in vivo
Recorded Endpoint: Cmax (ng/mL)
One number for each entry, in ng/mL.

Name the recorded Cmax of the item `O=C(NCCCN1CCOCC1)c1cc(Oc2ccc(NC(=O)c3cn(-c4ccc(F)c(Cl)c4)c4ncccc4c3=O)cc2F)ccn1` in your answer.
1630

====

Record form. Attribute: IC50. Fill in for each entry.
- System: A549
- Assay Remarks: cells
- Measurement Setup: Homo sapiens, A549, 72 h
Answers are plain numbers, in µM.

Query Smiles: O=C(NCCCN1CCOCC1)c1cc(Oc2ccc(NC(=O)c3cn(-c4ccc(F)cc4)c4ncccc4c3=O)cc2)ccn1
Scale Unit: µM
IC50: 4.18

Query Smiles: O=C(Nc1ccc(Oc2ccnc(C(=O)N3CCCC3)c2)cc1)c1cn(-c2ccccc2)c2ncccc2c1=O
Scale Unit: µM
IC50: 47.6

Query Smiles: CCCNC(=O)c1cc(Oc2ccc(NC(=O)c3cn(-c4ccccc4)c4ncccc4c3=O)cc2F)ccn1
Scale Unit: µM
IC50: 67.2

Give me IC50 for each of these compounds, listed below.
1. O=C(NCCCN1CCOCC1)c1cc(Oc2ccc(NC(=O)c3cn(-c4ccc(Br)cc4F)c4ncccc4c3=O)cc2F)ccn1
2. O=C(NCCCN1CCOCC1)c1cc(Oc2ccc(NC(=O)c3cn(-c4ccc(Br)cc4F)c4ncccc4c3=O)cc2)ccn1
3. CCCNC(=O)c1cc(Oc2ccc(NC(=O)c3cn(-c4ccc(F)c(Cl)c4)c4ncccc4c3=O)cc2F)ccn1
4. O=C(Nc1ccc(Oc2ccnc(C(=O)N3CCCC3)c2)cc1)c1cn(-c2ccc(F)cc2)c2ncccc2c1=O
5. CCCNC(=O)c1cc(Oc2ccc(NC(=O)c3cn(-c4ccc(F)cc4)c4ncccc4c3=O)cc2F)ccn1

1: 1.18; 2: 9.27; 3: 34.8; 4: 3.47; 5: 19.3

====

- Assay Remarks: Half life in Sprague-Dawley rat at 10 mg/kg, po by LC-MS/MS analysis
- Assay type: ADME, organism-based
- Measurement Setup: in vivo
Recorded Endpoint: half-life (h)
Give bare numbers, in h.

Name the recorded half-life of the item `O=C(NCCCN1CCOCC1)c1cc(Oc2ccc(NC(=O)c3cn(-c4ccc(F)c(Cl)c4)c4ncccc4c3=O)cc2F)ccn1` in your answer.
4.5

====

- Assay Remarks: Cmax in Sprague-Dawley rat at 10 mg/kg, po by LC-MS/MS analysis
- Assay type: ADME, organism-based
- Measurement Setup: in vivo
Recorded Endpoint: Cmax
Returns: string containing the numeric result and its unit.

Name the recorded Cmax of the item `O=C(NCCCN1CCOCC1)c1cc(Oc2ccc(NC(=O)c3cn(-c4ccc(F)c(Cl)c4)c4ncccc4c3=O)cc2F)ccn1` in your answer.
390 ng/mL

====

Observed IC50 for A549, reported per entry below.

Query Smiles: CCCNC(=O)c1cc(Oc2ccc(NC(=O)c3cn(-c4ccc(Br)cc4F)c4ncccc4c3=O)cc2)ccn1
System Tested: A549
IC50: Not Active

Query Smiles: O=C(Nc1ccc(Oc2ccnc(C(=O)N3CCCC3)c2)c(F)c1)c1cn(-c2ccccc2)c2ncccc2c1=O
System Tested: A549
IC50: Not Active

Query Smiles: O=C(Nc1ccc(Oc2ccnc(C(=O)N3CCCC3)c2)cc1)c1cn(-c2ccc(Br)cc2)c2ncccc2c1=O
System Tested: A549
IC50: Not Active
